From: patent US20100210692A1

# TESTED ON: SIRT1 (Homo sapiens)
# Sequence (Q96EB6 1-747): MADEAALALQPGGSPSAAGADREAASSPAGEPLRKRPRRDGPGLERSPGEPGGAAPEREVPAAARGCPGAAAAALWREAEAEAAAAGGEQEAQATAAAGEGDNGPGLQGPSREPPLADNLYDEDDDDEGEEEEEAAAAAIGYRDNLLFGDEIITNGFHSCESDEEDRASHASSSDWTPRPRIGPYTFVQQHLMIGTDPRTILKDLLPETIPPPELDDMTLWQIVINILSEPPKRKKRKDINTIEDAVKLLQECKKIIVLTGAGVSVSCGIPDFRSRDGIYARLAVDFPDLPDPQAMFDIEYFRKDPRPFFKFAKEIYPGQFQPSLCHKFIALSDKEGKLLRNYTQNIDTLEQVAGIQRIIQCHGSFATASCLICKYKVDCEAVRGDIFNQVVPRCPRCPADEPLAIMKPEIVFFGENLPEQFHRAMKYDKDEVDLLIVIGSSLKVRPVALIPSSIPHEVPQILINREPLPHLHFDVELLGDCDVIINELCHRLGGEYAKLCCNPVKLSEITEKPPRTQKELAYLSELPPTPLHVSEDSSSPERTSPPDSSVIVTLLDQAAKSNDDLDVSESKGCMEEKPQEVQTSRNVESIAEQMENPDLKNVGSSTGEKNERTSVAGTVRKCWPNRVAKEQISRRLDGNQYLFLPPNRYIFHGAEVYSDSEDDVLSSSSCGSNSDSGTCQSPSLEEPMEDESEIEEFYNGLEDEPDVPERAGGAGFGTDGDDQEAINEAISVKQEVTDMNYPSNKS
# EXPERIMENT DESCRIPTION: SIRT1 p53-382 IC50 assay (Table 1)
# Format: biochemical

| COMPOUND | IC50 |
| --- | --- |
| Cc1ccc2[nH]c3c(c2c1)CCCC3C(N)=O (stereo not shown) [Compound 4] | < 1000 nM |
